- study_system: HIV-1 Tat (Human immunodeficiency virus 1, UniProt P04608 P04608:1-86)
- method_summary: competition; D1/2; 18+15 duplex probe; 59-mer 18 nM
- condition_description: duplex with UUU bulge, no apical loop
endpoint_label: IC50 (nM)
Record the value in nM, omitting the unit from your answer.

// query Fill in: IC50 of 18-mer + 15-mer TAR duplex (dsRNA) RNA 1: AGCCAGAUUUGAGCAGCU RNA 2: AGCUGCUCUCUGGCU is ___
// result 65
